- Species: Rattus norvegicus
- ASSAY: Open TG-GATES - Regimen: Single
- Assay type: toxicity, organism-based, Sprague-Dawley
- Parameters: regimen Single, gender Male, age 6 weeks
- PROTOCOL CONDITIONS: in vivo, po, 100 mg/kg, 3 h, tissue Plasma, route gavage, dose level Low
Measured TBIL accompanies every entry in the list below.
Number in mg/dL, nothing else.

Exercise: State, in one line, measured TBIL of CNC(=C[N+](=O)[O-])NCCSCc1ccc(CN(C)C)o1
Solution: 0.1

From here, focus on the item given below.
Exercise: State, in one line, measured TBIL of O=C(OC[C@H]1O[C@@H](OC(=O)c2cc(O)c(O)c(OC(=O)c3cc(O)c(O)c(O)c3)c2)[C@H](OC(=O)c2cc(O)c(O)c(OC(=O)c3cc(O)c(O)c(O)c3)c2)[C@@H](OC(=O)c2cc(O)c(O)c(OC(=O)c3cc(O)c(O)c(O)c3)c2)[C@@H]1OC(=O)c1cc(O)c(O)c(OC(=O)c2cc(O)c(O)c(O)c2)c1)c1cc(O)c(O)c(OC(=O)c2cc(O)c(O)c(O)c2)c1
Solution: 0.5

* * *

- Organism: Rattus norvegicus
- ASSAY: Open TG-GATES - Regimen: Single
- Format: toxicity, organism-based, Sprague-Dawley
- Design: regimen Single, gender Male, age 6 weeks
- PROTOCOL CONDITIONS: in vivo, po, 0 mg/kg, 3 h, tissue Plasma, route gavage, dose level Control
Hi, to clarify the labels: Met covers TG from 50 mg/dL upward, Not met covers anything below 50 mg/dL.

Exercise: In plain terms: is recorded TG at least 50 mg/dL for Brc1ccccc1 [BROMOBENZENE] ?
Solution: Met

Exercise: In plain terms: is recorded TG at least 50 mg/dL for CN1C(=O)CCS(=O)(=O)C1c1ccc(Cl)cc1 (stereo not drawn) [CHLORMEZANONE] ?
Solution: Met

Exercise: In plain terms: is recorded TG at least 50 mg/dL for CCCc1cc(=O)[nH]c(=S)[nH]1 [PROPYLTHIOURACIL] ?
Solution: Not met

Exercise: In plain terms: is recorded TG at least 50 mg/dL for COC(=O)C1=C(C)NC(C)=C(C(=O)OC)C1c1ccccc1[N+](=O)[O-] [NIFEDIPINE] ?
Solution: Not met

Exercise: In plain terms: is recorded TG at least 50 mg/dL for O=C(OC[C@H]1O[C@@H](OC(=O)c2cc(O)c(O)c(OC(=O)c3cc(O)c(O)c(O)c3)c2)[C@H](OC(=O)c2cc(O)c(O)c(OC(=O)c3cc(O)c(O)c(O)c3)c2)[C@@H](OC(=O)c2cc(O)c(O)c(OC(=O)c3cc(O)c(O)c(O)c3)c2)[C@@H]1OC(=O)c1cc(O)c(O)c(OC(=O)c2cc(O)c(O)c(O)c2)c1)c1cc(O)c(O)c(OC(=O)c2cc(O)c(O)c(O)c2)c1 [TANNIC ACID] ?
Solution: Met

Further cases:
Exercise: In plain terms: is recorded TG at least 50 mg/dL for CN/C(=N/CCSCc1nc[nH]c1C)NC#N [CIMETIDINE] ?
Solution: Met

Exercise: In plain terms: is recorded TG at least 50 mg/dL for CN(C)CCC(c1ccc(Cl)cc1)c1ccccn1 (stereo not drawn) [CHLORPHENIRAMINE] ?
Solution: Not met

// provenance: ChEMBL document CHEMBL3885861
